biological target: CCKAR (Homo sapiens, UniProt P32238); construct: purchased Promega (in-house HiBiT-GPCR construct library, NanoBRET); experiment: NanoBRET screen HiBiT-CCKAR in HEK293; format: binding; conditions: CCKAR; tracer 0.1μM
Sequence (P32238 whole entry): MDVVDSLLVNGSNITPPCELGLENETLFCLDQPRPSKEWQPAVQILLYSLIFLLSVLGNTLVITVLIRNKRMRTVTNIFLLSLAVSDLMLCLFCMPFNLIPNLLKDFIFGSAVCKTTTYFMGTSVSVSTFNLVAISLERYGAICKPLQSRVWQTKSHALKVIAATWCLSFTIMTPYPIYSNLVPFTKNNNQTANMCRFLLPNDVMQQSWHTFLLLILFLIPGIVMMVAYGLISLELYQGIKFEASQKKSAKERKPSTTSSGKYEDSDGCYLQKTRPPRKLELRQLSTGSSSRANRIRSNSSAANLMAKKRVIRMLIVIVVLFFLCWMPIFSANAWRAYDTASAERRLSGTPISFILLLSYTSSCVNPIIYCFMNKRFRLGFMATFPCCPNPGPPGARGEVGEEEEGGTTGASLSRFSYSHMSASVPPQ
attribute_measured: NanoBRET Fold Response
Answers are plain numbers.

Example entries begin here.
1. N#CN=C(NCCCOc1cccc(CN2CCCCC2)c1)NCCNC(=O)CCOCCOCCOCCOCCNC(=O)CCc1ccc2n1[B-](F)(F)[N+]1=C(c3ccc[nH]3)C=CC1=C2    0.98
2. Cc1nc2n(c(=O)c1CCN1CCC(c3noc4cc(F)ccc34)CC1)CCCC2OC(=O)NCCOCCOCCOCCOCCNC(=O)CCc1ccc2n1[B-](F)(F)[N+]1=C(c3ccc[nH]3)C=CC1=C2 (centres unmarked)    1.20
3. CC(C)N(CC[C@H](c1ccccc1)c1cc(CCNC(=O)CCOCCOCCOCCOCCNC(=O)CCc2ccc3n2[B-](F)(F)[N+]2=C(c4ccc[nH]4)C=CC2=C3)ccc1O)C(C)C    1.01
4. O=C(CCOCCOCCOCCOCCNC(=O)CCc1ccc2n1[B-](F)(F)[N+]1=C(c3ccc[nH]3)C=CC1=C2)NCCCN1CCN(C2=Nc3ccccc3Oc3ccc(Cl)cc32)CC1    1.02
5. Cc1cc2c(s1)Nc1ccccc1N=C2N1CCN(CCCNC(=O)CCOCCOCCOCCOCCNC(=O)CCc2ccc3n2[B-](F)(F)[N+]2=C(c4ccc[nH]4)C=CC2=C3)CC1    1.02
6. COc1ccccc1N1CCN(CCCCN2C(=O)c3ccc(CNC(=O)CCOCCNC(=O)c4ccc(CNC(=O)CCc5ccc6n5[B-](F)(F)[N+]5=C(c7ccc[nH]7)C=CC5=C6)cc4)cc3C2=O)CC1    0.98
7. COc1ccccc1N1CCN(CCCCN2C(=O)c3ccc(CNC(=O)CCOCCOCCOCCOCCNC(=O)CCc4ccc5n4[B-](F)(F)[N+]4=C(c6ccc[nH]6)C=CC4=C5)cc3C2=O)CC1    0.98
8. O=C(CCc1ccc2n1[B-](F)(F)[N+]1=C(c3ccc[nH]3)C=CC1=C2)NCCOCCOCCNC(=O)OCCOCCN1CCN(C2=Nc3ccccc3Sc3ccccc32)CC1    1.04

Batch request: NanoBRET Fold Response per item, same order as input.
1. CC(C)N(CC[C@H](c1ccccc1)c1cc(CCNC(=O)c2ccc(CNC(=O)CCc3ccc4n3[B-](F)(F)[N+]3=C(c5ccc[nH]5)C=CC3=C4)cc2)ccc1O)C(C)C
2. O=C(CCc1ccc2n1[B-](F)(F)[N+]1=C(c3ccc[nH]3)C=CC1=C2)NCc1ccc(C(=O)NCCOCCC(=O)N[C@@H]2CC[C@@]3(O)[C@H]4Cc5ccc(O)c6c5[C@@]3(CCN4CC3CC3)[C@H]2O6)cc1 [Naltrexone-3-NB590]
3. CCCn1c(=O)c2[nH]c(-c3ccc(OCC(=O)NCCNC(=O)CCOCCNC(=O)c4ccc(CNC(=O)CCc5ccc6n5[B-](F)(F)[N+]5=C(c7ccc[nH]7)C=CC5=C6)cc4)cc3)nc2n(CCC)c1=O

1. 1.05
2. 1.10
3. 1.01

----------
biological target: TSHR (Homo sapiens); construct: purchased Promega (in-house HiBiT-GPCR construct library, NanoBRET); test: NanoBRET screen HiBiT-TSHR in HEK293; type: binding; settings: TSHR; tracer 0.1μM
Sequence (P16473 21-764): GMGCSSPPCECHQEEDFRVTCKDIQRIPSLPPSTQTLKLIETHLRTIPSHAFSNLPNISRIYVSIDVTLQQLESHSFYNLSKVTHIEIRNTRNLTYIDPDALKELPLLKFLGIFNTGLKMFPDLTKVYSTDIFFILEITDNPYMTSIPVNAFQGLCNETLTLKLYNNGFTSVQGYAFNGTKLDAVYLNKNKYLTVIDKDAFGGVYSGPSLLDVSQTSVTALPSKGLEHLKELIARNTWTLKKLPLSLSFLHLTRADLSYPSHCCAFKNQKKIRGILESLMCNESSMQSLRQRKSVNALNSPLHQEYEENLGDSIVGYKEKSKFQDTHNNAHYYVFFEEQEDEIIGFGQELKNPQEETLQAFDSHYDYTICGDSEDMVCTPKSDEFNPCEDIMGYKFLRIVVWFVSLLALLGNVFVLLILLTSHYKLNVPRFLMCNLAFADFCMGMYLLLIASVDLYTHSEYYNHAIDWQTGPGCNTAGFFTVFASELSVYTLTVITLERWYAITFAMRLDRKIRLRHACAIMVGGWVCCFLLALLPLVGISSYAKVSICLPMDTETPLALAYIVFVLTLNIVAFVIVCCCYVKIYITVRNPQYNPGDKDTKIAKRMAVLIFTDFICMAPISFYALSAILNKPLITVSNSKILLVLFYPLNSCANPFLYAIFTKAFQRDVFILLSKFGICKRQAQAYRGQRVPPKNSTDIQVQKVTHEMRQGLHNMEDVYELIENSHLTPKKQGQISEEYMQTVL
We use 1 as the dividing line for NanoBRET Fold Response: on or above the line is 1.0, below is 0.0.

For orientation, consider the following solved cases.
1) O=C(CCc1ccc2n1[B-](F)(F)[N+]1=C(c3ccc[nH]3)C=CC1=C2)NCc1ccc(C(=O)NCCOCCC(=O)N[C@@H]2CC[C@@]3(O)[C@H]4Cc5ccc(O)c6c5[C@@]3(CCN4CC3CC3)[C@H]2O6)cc1 [Naltrexone-3-NB590]    1.0
2) O=C(CCOCCOCCOCCOCCNC(=O)CCc1ccc2n1[B-](F)(F)[N+]1=C(c3ccc[nH]3)C=CC1=C2)NCCCN1CCN(C2=Nc3ccccc3Oc3ccc(Cl)cc32)CC1    0.0
3) CC(C)N(CC[C@H](c1ccccc1)c1cc(CCNC(=O)c2ccc(CNC(=O)CCc3ccc4n3[B-](F)(F)[N+]3=C(c5ccc[nH]5)C=CC3=C4)cc2)ccc1O)C(C)C    0.0
4) CC(C)N(CC[C@H](c1ccccc1)c1cc(CCNC(=O)CCOCCOCCOCCOCCNC(=O)CCc2ccc3n2[B-](F)(F)[N+]2=C(c4ccc[nH]4)C=CC2=C3)ccc1O)C(C)C    0.0
5) CCCn1c(=O)c2[nH]c(-c3ccc(OCC(=O)NCCNC(=O)CCOCCNC(=O)c4ccc(CNC(=O)CCc5ccc6n5[B-](F)(F)[N+]5=C(c7ccc[nH]7)C=CC5=C6)cc4)cc3)nc2n(CCC)c1=O    1.0

Hi, just wondering whether COc1ccccc1N1CCN(CCCCN2C(=O)c3ccc(CNC(=O)CCOCCOCCOCCOCCNC(=O)CCc4ccc5n4[B-](F)(F)[N+]4=C(c6ccc[nH]6)C=CC4=C5)cc3C2=O)CC1 shows NanoBRET Fold Response of 1 or higher.
0.0

Hi, just wondering whether N#CN=C(NCCCOc1cccc(CN2CCCCC2)c1)NCCNC(=O)CCOCCOCCOCCOCCNC(=O)CCc1ccc2n1[B-](F)(F)[N+]1=C(c3ccc[nH]3)C=CC1=C2 shows NanoBRET Fold Response of 1 or higher.
1.0

Hi, just wondering whether O=C(CCc1ccc2n1[B-](F)(F)[N+]1=C(c3ccc[nH]3)C=CC1=C2)NCCOCCOCCNC(=O)OCCOCCN1CCN(C2=Nc3ccccc3Sc3ccccc32)CC1 shows NanoBRET Fold Response of 1 or higher.
0.0

----------
Assign NanoBRET Fold Response to each entry below.
biological target: FZD8 (Homo sapiens, UniProt Q9H461); construct: purchased Promega (in-house HiBiT-GPCR construct library, NanoBRET); experiment: NanoBRET screen HiBiT-FZD8 in HEK293; type: binding; settings: FZD8; tracer 0.1μM
Sequence (Q9H461 28-694): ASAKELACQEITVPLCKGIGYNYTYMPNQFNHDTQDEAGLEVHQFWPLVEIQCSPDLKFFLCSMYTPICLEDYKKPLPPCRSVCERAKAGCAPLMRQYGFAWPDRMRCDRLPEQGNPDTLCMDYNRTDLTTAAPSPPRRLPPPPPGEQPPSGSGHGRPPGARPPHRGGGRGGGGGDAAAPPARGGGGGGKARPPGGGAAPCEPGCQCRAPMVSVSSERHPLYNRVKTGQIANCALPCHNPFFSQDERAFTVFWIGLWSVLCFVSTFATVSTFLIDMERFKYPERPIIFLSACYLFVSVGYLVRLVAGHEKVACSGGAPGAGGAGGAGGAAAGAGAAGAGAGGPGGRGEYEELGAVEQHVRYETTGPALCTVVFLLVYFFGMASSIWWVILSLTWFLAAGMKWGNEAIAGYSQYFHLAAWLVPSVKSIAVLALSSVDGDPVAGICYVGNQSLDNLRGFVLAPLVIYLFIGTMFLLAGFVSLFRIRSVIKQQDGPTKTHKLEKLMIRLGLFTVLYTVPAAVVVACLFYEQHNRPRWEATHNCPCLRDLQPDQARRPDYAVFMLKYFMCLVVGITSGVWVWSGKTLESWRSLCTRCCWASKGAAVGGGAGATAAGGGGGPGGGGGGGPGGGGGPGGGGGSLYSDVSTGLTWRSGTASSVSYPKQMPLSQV
Numbers only.

Batch request: NanoBRET Fold Response per item, same order as input.
1. O=C(CCOCCOCCOCCOCCNC(=O)CCc1ccc2n1[B-](F)(F)[N+]1=C(c3ccc[nH]3)C=CC1=C2)NCCCN1CCN(C2=Nc3ccccc3Oc3ccc(Cl)cc32)CC1 [Loxapine-a-2-NB590]
2. COc1ccccc1N1CCN(CCCCN2C(=O)c3ccc(CNC(=O)CCOCCOCCOCCOCCNC(=O)CCc4ccc5n4[B-](F)(F)[N+]4=C(c6ccc[nH]6)C=CC4=C5)cc3C2=O)CC1 [NAN-190-2-NB590]
3. O=C(CCc1ccc2n1[B-](F)(F)[N+]1=C(c3ccc[nH]3)C=CC1=C2)NCc1ccc(C(=O)NCCOCCC(=O)N[C@@H]2CC[C@@]3(O)[C@H]4Cc5ccc(O)c6c5[C@@]3(CCN4CC3CC3)[C@H]2O6)cc1 [Naltrexone-3-NB590]

[0.95, 0.95, 0.90]

Batch request: NanoBRET Fold Response per item, same order as input.
1. CCCn1c(=O)c2[nH]c(-c3ccc(OCC(=O)NCCNC(=O)CCOCCNC(=O)c4ccc(CNC(=O)CCc5ccc6n5[B-](F)(F)[N+]5=C(c7ccc[nH]7)C=CC5=C6)cc4)cc3)nc2n(CCC)c1=O [XAC-3-NB590]
2. Cc1cc2c(s1)Nc1ccccc1N=C2N1CCN(CCCNC(=O)CCOCCOCCOCCOCCNC(=O)CCc2ccc3n2[B-](F)(F)[N+]2=C(c4ccc[nH]4)C=CC2=C3)CC1 [Olanzapine-a-2-NB590]

0.95
0.95

----------
Assign NanoBRET Fold Response to each entry below.
target: ADRA1A (Homo sapiens, UniProt P35348); construct: purchased Promega (in-house HiBiT-GPCR construct library, NanoBRET); test: NanoBRET screen HiBiT-ADRA1A in HEK293; format: binding; settings: ADRA1A; tracer 0.1μM
Sequence (P35348 whole entry): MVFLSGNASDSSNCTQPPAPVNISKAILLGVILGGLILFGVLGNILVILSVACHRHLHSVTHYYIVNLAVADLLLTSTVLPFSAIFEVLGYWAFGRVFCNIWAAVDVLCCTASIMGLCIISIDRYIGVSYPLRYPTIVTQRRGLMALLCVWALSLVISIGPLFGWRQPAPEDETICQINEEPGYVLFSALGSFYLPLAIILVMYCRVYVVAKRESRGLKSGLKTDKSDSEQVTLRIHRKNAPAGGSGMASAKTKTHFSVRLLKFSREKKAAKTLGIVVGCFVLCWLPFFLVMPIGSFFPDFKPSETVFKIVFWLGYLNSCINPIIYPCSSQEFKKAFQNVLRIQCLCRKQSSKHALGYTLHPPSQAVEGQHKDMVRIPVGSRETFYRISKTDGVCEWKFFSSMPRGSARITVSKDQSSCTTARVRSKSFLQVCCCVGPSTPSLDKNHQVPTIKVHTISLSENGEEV
Numbers only.

Example entries begin here.
1. O=C(CCc1ccc2n1[B-](F)(F)[N+]1=C(c3ccc[nH]3)C=CC1=C2)NCCOCCOCCNC(=O)OCCOCCN1CCN(C2=Nc3ccccc3Sc3ccccc32)CC1 [Quetiapine-a-2-NB590]    3.24
2. COc1ccccc1N1CCN(CCCCN2C(=O)c3ccc(CNC(=O)CCOCCNC(=O)c4ccc(CNC(=O)CCc5ccc6n5[B-](F)(F)[N+]5=C(c7ccc[nH]7)C=CC5=C6)cc4)cc3C2=O)CC1 [NAN-190-3-NB590]    3.94

# return recorded NanoBRET Fold Response for entry CC(C)N(CC[C@H](c1ccccc1)c1cc(CCNC(=O)c2ccc(CNC(=O)CCc3ccc4n3[B-](F)(F)[N+]3=C(c5ccc[nH]5)C=CC3=C4)cc2)ccc1O)C(C)C [Tolterodine-BZ-NB590]
1.56

----------
target: GRM1 (Homo sapiens, UniProt Q13255); construct: purchased Promega (in-house HiBiT-GPCR construct library, NanoBRET); test: NanoBRET screen HiBiT-GRM1 in HEK293; format: binding; conditions: GRM1; tracer 0.1μM
Sequence (Q13255 19-1194): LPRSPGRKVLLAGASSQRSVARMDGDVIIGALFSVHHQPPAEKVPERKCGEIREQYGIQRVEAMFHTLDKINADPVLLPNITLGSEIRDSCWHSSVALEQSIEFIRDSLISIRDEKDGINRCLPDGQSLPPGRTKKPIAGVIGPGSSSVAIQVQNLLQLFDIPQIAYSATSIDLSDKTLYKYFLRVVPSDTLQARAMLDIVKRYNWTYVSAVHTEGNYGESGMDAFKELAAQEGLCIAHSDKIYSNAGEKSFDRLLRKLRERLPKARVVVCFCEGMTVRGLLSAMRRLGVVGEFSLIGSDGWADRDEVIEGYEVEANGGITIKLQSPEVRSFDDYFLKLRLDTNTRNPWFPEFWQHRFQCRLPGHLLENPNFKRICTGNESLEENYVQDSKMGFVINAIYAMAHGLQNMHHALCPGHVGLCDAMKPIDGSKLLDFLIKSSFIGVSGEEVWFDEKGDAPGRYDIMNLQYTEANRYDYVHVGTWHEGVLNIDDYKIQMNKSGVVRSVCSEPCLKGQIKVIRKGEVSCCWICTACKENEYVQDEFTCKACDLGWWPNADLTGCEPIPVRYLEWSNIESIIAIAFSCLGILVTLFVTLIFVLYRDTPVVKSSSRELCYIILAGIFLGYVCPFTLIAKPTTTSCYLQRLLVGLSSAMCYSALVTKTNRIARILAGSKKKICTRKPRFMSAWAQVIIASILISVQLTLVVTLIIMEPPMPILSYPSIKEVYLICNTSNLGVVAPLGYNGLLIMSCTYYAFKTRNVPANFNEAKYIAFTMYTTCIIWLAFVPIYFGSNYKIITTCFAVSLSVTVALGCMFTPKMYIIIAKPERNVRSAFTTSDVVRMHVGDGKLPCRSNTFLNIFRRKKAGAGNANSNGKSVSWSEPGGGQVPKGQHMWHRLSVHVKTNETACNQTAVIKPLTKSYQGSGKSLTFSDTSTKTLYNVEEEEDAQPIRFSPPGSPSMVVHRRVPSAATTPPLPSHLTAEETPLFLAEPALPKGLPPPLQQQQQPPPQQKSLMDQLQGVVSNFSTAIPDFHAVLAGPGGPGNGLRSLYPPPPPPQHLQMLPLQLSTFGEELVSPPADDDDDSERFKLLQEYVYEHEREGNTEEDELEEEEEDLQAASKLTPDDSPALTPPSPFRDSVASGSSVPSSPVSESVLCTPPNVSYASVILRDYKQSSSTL
attribute_measured: NanoBRET Fold Response
Numbers only.

1. O=C(CCc1ccc2n1[B-](F)(F)[N+]1=C(c3ccc[nH]3)C=CC1=C2)NCCOCCOCCNC(=O)OCCOCCN1CCN(C2=Nc3ccccc3Sc3ccccc32)CC1    0.74
2. COc1ccccc1N1CCN(CCCCN2C(=O)c3ccc(CNC(=O)CCOCCOCCOCCOCCNC(=O)CCc4ccc5n4[B-](F)(F)[N+]4=C(c6ccc[nH]6)C=CC4=C5)cc3C2=O)CC1    0.35
3. Cc1nc2n(c(=O)c1CCN1CCC(c3noc4cc(F)ccc34)CC1)CCCC2OC(=O)NCCOCCOCCOCCOCCNC(=O)CCc1ccc2n1[B-](F)(F)[N+]1=C(c3ccc[nH]3)C=CC1=C2 (stereo not shown)    0.97

// moving on: another record for NanoBRET Fold Response
# return recorded NanoBRET Fold Response for entry CN(C)CCC=C1c2ccccc2CCc2ccc(C(=O)NCCNC(=O)CCOCCOCCOCCOCCNC(=O)CCc3ccc4n3[B-](F)(F)[N+]3=C(c5ccc[nH]5)C=CC3=C4)cc21
0.77

Origin of measurements: paper PMC8151276
